System: K-562 leukemia
Test: NCI tumour cell line growth inhibition, 48 h
Reported TGI is given for each of the following compounds.

[
  {
    "compound": "Cc1ccccc1OC(C)C(=O)NN1C(=O)CSC1c1ccc(Cl)cc1 (stereo not given)",
    "TGI": "> 77.1 µM"
  },
  {
    "compound": "O=S(=O)(NCCNc1nccc(-c2c(-c3ccc(F)c(O)c3)nc3sccn23)n1)c1ccc(F)cc1",
    "TGI": "> 100 µM"
  },
  {
    "compound": "COC(=O)C1C(O)CCC2CN3CCc4c([nH]c5ccccc45)C3CC21 (stereo not given)",
    "TGI": "> 100 µM"
  },
  {
    "compound": "CC(=O)N/N=C1\\CC(C)(C)C2CCC1C2 (stereo not given)",
    "TGI": "> 100 µM"
  },
  {
    "compound": "O=C(O)c1ccc(NCn2nc(-c3ccccc3O)oc2=S)cc1",
    "TGI": "> 100 µM"
  },
  {
    "compound": "COc1ccc(OC)c(NC(=O)CCC/C(CC(=O)c2ccc(O)c(OC)c2)=N\\Nc2nnc(C)n2N)c1",
    "TGI": "> 100 µM"
  },
  {
    "compound": "NC(N)=NC(N)=Nc1ccc(S(=O)(=O)O)cc1",
    "TGI": "> 100 µM"
  },
  {
    "compound": "FC(F)(c1ccc2ncccc2c1)c1nnc2ccc(-c3ccncc3)nn12",
    "TGI": "> 100 µM"
  },
  {
    "compound": "Cc1ncc(C(=O)Nc2ccc(CN3CCN(C)CC3)c(C(F)(F)F)c2)cc1C#Cc1cnc2cccnn12",
    "TGI": "50 µM"
  },
  {
    "compound": "CCCCCCCCCCCCCCCCNC(=O)C(=O)/C=C(\\O)c1ccc(C)cc1",
    "TGI": "> 10 µM"
  },
  {
    "compound": "CC(=O)OCC1OC(n2cc(F)c(=O)[nH]c2=O)C(NC(=O)OCc2ccccc2)C(OC(C)=O)C1OC(C)=O (stereo not given)",
    "TGI": "> 100 µM"
  },
  {
    "compound": "O=C(O)c1ccc(CI)cc1",
    "TGI": "74.6 µM"
  },
  {
    "compound": "Cn1c(C(=O)c2ccncc2)cc2ccccc21",
    "TGI": "> 100 µM"
  },
  {
    "compound": "NC1=C(NC(=O)Cc2ccccc2F)C(=O)c2ccccc2C1=O",
    "TGI": "> 100 µM"
  },
  {
    "compound": "Cc1nc(C)c(N2CCN(S(=O)(=O)N(Cc3ccccc3)Cc3ccccc3)CC2)c(=O)[nH]1",
    "TGI": "> 100 µM"
  },
  {
    "compound": "COc1ccc(C2OC(=O)c3ccc4ccccc4c32)c(C)c1 (stereo not given)",
    "TGI": "> 75.7 µM"
  },
  {
    "compound": "CC1=CC(=O)CC2(C)CC[C@@H]3C[C@]12OC3(C)C (stereo not given in full)",
    "TGI": "> 100 µM"
  },
  {
    "compound": "CC[C@H](Nc1ncnc2nc[nH]c12)c1nc2cccc(F)c2c(=O)n1-c1ccccc1",
    "TGI": "> 100 µM"
  },
  {
    "compound": "O=C(O)CCC(=O)c1ccc2c(c1)C(C(=O)O)CC2 (stereo not given)",
    "TGI": "> 100 µM"
  },
  {
    "compound": "c1cc2c(cc1NC1=NCCO1)OCO2",
    "TGI": "> 100 µM"
  }
]

----------
System: HT29 colon
Assay: NCI tumour cell line growth inhibition, 48 h

[
  {
    "compound": "[C](#Cc1ccccc1)[Hg][C]#Cc1ccccc1",
    "test-target": "HT29 colon",
    "TGI": "40.9 µM"
  },
  {
    "compound": "Cc1nc(N)nc2c1CCC(O)S2 (stereo not drawn)",
    "test-target": "HT29 colon",
    "TGI": "17.3 µM"
  },
  {
    "compound": "COc1ccc2c(=O)cc(-c3ccccc3)[nH]c2c1",
    "test-target": "HT29 colon",
    "TGI": "> 100 µM"
  },
  {
    "compound": "COc1ccc(-c2cs/c(=N\\N=C\\c3ccc(O)cc3O)n2/N=C/c2ccc(O)cc2O)cc1",
    "test-target": "HT29 colon",
    "TGI": "5.26 µM"
  },
  {
    "compound": "CC(=O)c1ccc2c(c1)C1C=CCC1[C@H](c1cc3c(cc1Br)OCO3)N2 (stereo partly drawn)",
    "test-target": "HT29 colon",
    "TGI": "13 µM"
  },
  {
    "compound": "O=C1/C(=C/c2cccc(Br)c2)COc2ccc(O)cc21",
    "test-target": "HT29 colon",
    "TGI": "10.2 µM"
  },
  {
    "compound": "NC1=C(NC(=O)Cc2ccccc2F)C(=O)c2ccccc2C1=O",
    "test-target": "HT29 colon",
    "TGI": "> 100 µM"
  },
  {
    "compound": "COC/C=C\\COC",
    "test-target": "HT29 colon",
    "TGI": "> 100 µM"
  },
  {
    "compound": "CC(=O)c1c(C)nc(SSc2nc(C)c(C(C)=O)c(-c3ccc(Cl)cc3)c2C#N)c(C#N)c1-c1ccc(Cl)cc1",
    "test-target": "HT29 colon",
    "TGI": "> 150 µg/mL"
  },
  {
    "compound": "Cc1c2c3ccccc3nc-2n(C)c2ccccc12",
    "test-target": "HT29 colon",
    "TGI": "11.6 µM"
  },
  {
    "compound": "CCOC(=O)c1cc2cc3c4c(c2oc1=O)CCCN4CCC3",
    "test-target": "HT29 colon",
    "TGI": "> 100 µM"
  },
  {
    "compound": "O=C(c1nc2ccc([N+](=O)[O-])cc2[nH]c1=O)C(O)c1ccc2c(c1)OCO2 (stereo not drawn)",
    "test-target": "HT29 colon",
    "TGI": "> 100 µM"
  },
  {
    "compound": "C#Cc1cccc(N2C(=O)c3c(c(-c4ccccc4)c(-c4ccc(Cc5ccc(-c6c(-c7ccccc7)c7c(c(-c8ccccc8)c6-c6ccccc6)C(=O)N(c6cccc(C#C)c6)C7=O)cc5)cc4)c(-c4ccccc4)c3-c3ccccc3)C2=O)c1",
    "test-target": "HT29 colon",
    "TGI": "> 100 µM"
  },
  {
    "compound": "Nc1nonc1-c1nc2cnccc2n1C1CC1",
    "test-target": "HT29 colon",
    "TGI": "> 25 µM"
  },
  {
    "compound": "NC(=O)N/N=C(/CC1C(=O)Oc2ccccc21)c1ccccc1O (stereo not drawn)",
    "test-target": "HT29 colon",
    "TGI": "> 100 µM"
  },
  {
    "compound": "C=C1C(=O)O[C@H]2C[C@@]3(COC(C)=O)C=COC=C(COC(=O)C(C)C)C3CC12 (stereo partly drawn)",
    "test-target": "HT29 colon",
    "TGI": "> 100 µM"
  },
  {
    "compound": "CC(=O)Nc1ccc(C(=O)NN2C(=O)C(Cl)/C2=C/c2ccco2)cc1 (stereo not drawn)",
    "test-target": "HT29 colon",
    "TGI": "> 100 µM"
  },
  {
    "compound": "O=C1CC(c2ccccc2)C2(C(=O)NC(=S)NC2=O)C(c2ccccc2)C1 (stereo not drawn)",
    "test-target": "HT29 colon",
    "TGI": "> 75 µM"
  }
]

----------
System: SK-MEL-5 melanoma
Experiment: NCI tumour cell line growth inhibition, 48 h
outcome-measure: TGI

[
  {
    "molecule": "COc1cc2c(cc1OC)C(=O)N(c1ccc(O)cc1)C2=O",
    "test-target": "SK-MEL-5 melanoma",
    "result": "> 100 µM"
  },
  {
    "molecule": "S=c1snc2n1CCN2",
    "test-target": "SK-MEL-5 melanoma",
    "result": "> 100 µM"
  },
  {
    "molecule": "Cc1ccc(S(=O)(=O)OC2C(O)C(O)OC2C(c2cc(O)c3c(c2O)C(=O)c2ccccc2C3=O)c2cc(O)c3c(c2O)C(=O)c2ccccc2C3=O)cc1 (stereo not given)",
    "test-target": "SK-MEL-5 melanoma",
    "result": "> 10 µM"
  },
  {
    "molecule": "CS(=O)(=O)c1nc(-c2cc3c(c(S(C)(=O)=O)n2)CCCC3)cc2c1CCCCC2",
    "test-target": "SK-MEL-5 melanoma",
    "result": "> 100 µM"
  },
  {
    "molecule": "CCOC(=O)c1nnsc1N/N=C\\c1ccc([N+](=O)[O-])cc1",
    "test-target": "SK-MEL-5 melanoma",
    "result": "> 100 µM"
  }
]

All values here come from PubChem BioAssay (NCI).
